Listed here: items and their measured combination Emax.
System: P30-OHK (B-Lymphoblastic Leukemia)
Assay method text: combination Emax (second highest fraction inhibited in the dose matrix, 72 h); higher = more inhibition; extreme values may be limits of the assay

Molecule	combination Emax
CN(C)CCCOc1ccc(-c2ccc3ncc4c(c3c2)n(C2CCOCC2)c(=O)n4C)cn1 [AZD0156] + CCN(CCO)CCCOc1ccc2c(Nc3cc(CC(=O)Nc4cccc(F)c4)[nH]n3)ncnc2c1 [AZD2811] (first compound max 1 µM, 7x7, partner max 1 µM)	0.834
CN(CCO)CC[C@H](CSc1ccccc1)Nc1ccc(S(=O)(=O)NC(=O)c2ccc(N3CCC([C@@H](O)c4ccccc4-c4ccc(Cl)cc4)CC3)cc2)cc1S(=O)(=O)C(F)(F)F [AZD4320] + C[C@@H](Nc1cc(F)cc(F)c1)c1cc(C(=O)N(C)C)cc2c(=O)cc(N3CCOCC3)oc12 [AZD8186] (first compound max 1 µM, 7x7, partner max 3 µM)	0.979
Cn1cnc2c(F)c(Nc3ccc(Br)cc3Cl)c(C(=O)NOCCO)cc21 [Selumetinib] + C[C@@H]1COCCN1C2=NC(=NC(=C2)C3(CC3)[S@](=N)(=O)C)C4=C5C=CNC5=NC=C4 [AZD6738] (first compound max 10 µM, 7x7, partner max 10 µM)	0.889
